Values were extracted from the OligoGym collection.

Provide the reported sensor-assay potency score (higher = more potent) of each item.
# subject.of.test: C12orf42
# assay.remarks: pooled miR-30 sensor sort-seq; sequence = guide strand; further: reference of the scale not given here
# condition.parameters: shRNA
Lab note: jot the number down without any unit.

In plain terms, TTAGGTCTTGTGTGTCTACTGA has a documented sensor-assay potency score (higher = more potent) of 0.176

In plain terms, TGATTAATGAATCTGGAGCAGG has a documented sensor-assay potency score (higher = more potent) of -0.678

In plain terms, TTCATAACAAGGGATGTGCTTT has a documented sensor-assay potency score (higher = more potent) of -0.454

In plain terms, TCGAGCTCTGTGTTACTCGGGC has a documented sensor-assay potency score (higher = more potent) of -0.424

In plain terms, TCTGCTTTGGATGTCGTCGGGG has a documented sensor-assay potency score (higher = more potent) of -0.507

In plain terms, TTCATGTGATTAATGAATCTGG has a documented sensor-assay potency score (higher = more potent) of 0.286

In plain terms, TTTATTAACCTCTTGGAGGGGA has a documented sensor-assay potency score (higher = more potent) of 0.548

In plain terms, TCTTGTGTGTCTACTGATGTGT has a documented sensor-assay potency score (higher = more potent) of 0.434

---

# subject.of.test: PION
# assay.remarks: pooled miR-30 sensor sort-seq; sequence = guide strand
# condition.parameters: shRNA
outcome.measure: sensor-assay potency score (higher = more potent)
Lab note: jot the number down without any unit.

In plain terms, TTTTCTAAAACATCTGCGCCGC has a documented sensor-assay potency score (higher = more potent) of -0.387

In plain terms, TAACATACACACAAACTTCCTG has a documented sensor-assay potency score (higher = more potent) of 0.883

In plain terms, TTTCTTCTTTTCTACACCCTGT has a documented sensor-assay potency score (higher = more potent) of 0.0243

In plain terms, TTGAACATTAAGTAGGTGGAAG has a documented sensor-assay potency score (higher = more potent) of -0.626

In plain terms, TAGACTGAACTAAACTTGCAGC has a documented sensor-assay potency score (higher = more potent) of -0.224

---

# subject.of.test: PSG2
# assay.remarks: pooled miR-30 sensor sort-seq; sequence = guide strand
# condition.parameters: shRNA
Please use 1.0 whenever sensor-assay potency score (higher = more potent) is not below -0.8, and 0.0 whenever it is.

Threshold query (sensor-assay potency score (higher = more potent) >= -0.8) on TAGAAGCAGAGACTTTGACTGT
1.0

Threshold query (sensor-assay potency score (higher = more potent) >= -0.8) on TTCTTGTAGAAGCAGAGACTTT
0.0

Threshold query (sensor-assay potency score (higher = more potent) >= -0.8) on TTTCGGACAGCTGAAACCTATG
0.0

Threshold query (sensor-assay potency score (higher = more potent) >= -0.8) on TTTCTCGTCCACTATATGCAGG
0.0

Threshold query (sensor-assay potency score (higher = more potent) >= -0.8) on TTAAAAGTGATGCTGTGACCAG
1.0

Threshold query (sensor-assay potency score (higher = more potent) >= -0.8) on TAGAGGTTATCTCCTGAACGGT
0.0

Threshold query (sensor-assay potency score (higher = more potent) >= -0.8) on TAAAAGTGATGCTGTGACCAGG
1.0

Threshold query (sensor-assay potency score (higher = more potent) >= -0.8) on AAACCTATGAGTCATAGGGAGG
0.0

---

# subject.of.test: CTSB
# assay.remarks: pooled miR-30 sensor sort-seq; sequence = guide strand
# condition.parameters: shRNA
Please use 1 whenever sensor-assay potency score (higher = more potent) is not below -0.8, and -1 whenever it is.

Threshold query (sensor-assay potency score (higher = more potent) >= -0.8) on TAACTTGACAGGGTGAAGCTGT
1

Threshold query (sensor-assay potency score (higher = more potent) >= -0.8) on ATAGTTGACCAGCTCATCCGAC
1

Threshold query (sensor-assay potency score (higher = more potent) >= -0.8) on TTGGTGTGGATGCAGATCCGGT
-1

Threshold query (sensor-assay potency score (higher = more potent) >= -0.8) on TAGTTGACCAGCTCATCCGACA
-1

Threshold query (sensor-assay potency score (higher = more potent) >= -0.8) on TTGGCAACCAGCCAGTAGGGTG
-1

Threshold query (sensor-assay potency score (higher = more potent) >= -0.8) on TCTCTGATCTCTTTGATGGTGG
1

Threshold query (sensor-assay potency score (higher = more potent) >= -0.8) on TATCCGTAGTGCTTGTCCTGTT
1

Threshold query (sensor-assay potency score (higher = more potent) >= -0.8) on TTCTATTAAAGAATCATGCTGA
1

Threshold query (sensor-assay potency score (higher = more potent) >= -0.8) on TAAACATAACTCTCTGGGGTGG
1

Threshold query (sensor-assay potency score (higher = more potent) >= -0.8) on TTGTCCAGAAGTTCCAAGCTTC
1

Threshold query (sensor-assay potency score (higher = more potent) >= -0.8) on TTCTCGCTATTGGAGACGCTGT
-1

Threshold query (sensor-assay potency score (higher = more potent) >= -0.8) on TTCCACAGTGATCCTGTCCTCT
1

Threshold query (sensor-assay potency score (higher = more potent) >= -0.8) on TTTCTTGTCCAGAAGTTCCAAG
-1

Threshold query (sensor-assay potency score (higher = more potent) >= -0.8) on TTGTCCTGTTTGTAGGTCGGGC
-1

Threshold query (sensor-assay potency score (higher = more potent) >= -0.8) on TTTGTTGACATAGTTGACCAGC
1

Threshold query (sensor-assay potency score (higher = more potent) >= -0.8) on TTTTTGTAGATCTCGGCCATGA
1

Threshold query (sensor-assay potency score (higher = more potent) >= -0.8) on TGACGTGTTGGTACACTCCTGA
1

Threshold query (sensor-assay potency score (higher = more potent) >= -0.8) on TGTTGGTACACTCCTGACTTGT
-1

---

Provide the reported sensor-assay potency score (higher = more potent) of each item.
# subject.of.test: TECPR1
# assay.remarks: pooled miR-30 sensor sort-seq; sequence = guide strand
# condition.parameters: shRNA
Lab note: jot the number down without any unit.

Param item: TTCTTGTCTTTCGTGTAGGTGG ; param system: TECPR1; output sensor-assay potency score (higher = more potent): -0.581

Param item: TTGTCTTTCGTGTAGGTGGCGG ; param system: TECPR1; output sensor-assay potency score (higher = more potent): -0.464

Param item: TGTGGTACCAGCAGTCACCGGC ; param system: TECPR1; output sensor-assay potency score (higher = more potent): 0.193

Param item: TATGAGGCAGGGAAGTCGCTGG ; param system: TECPR1; output sensor-assay potency score (higher = more potent): -0.217

Param item: TTGAGGTCAATATTGGTCCAGG ; param system: TECPR1; output sensor-assay potency score (higher = more potent): -0.869

Param item: TCACCAACCATCTCAATCCAAC ; param system: TECPR1; output sensor-assay potency score (higher = more potent): -1.66

---

Provide the reported sensor-assay potency score (higher = more potent) of each item.
# subject.of.test: ZFAND6
# assay.remarks: pooled miR-30 sensor sort-seq; sequence = guide strand
# condition.parameters: shRNA

In plain terms, TAGATGAAGATGTAGAGTCTAA has a documented sensor-assay potency score (higher = more potent) of -0.473

In plain terms, TTATTCTACCATTACTACTATT has a documented sensor-assay potency score (higher = more potent) of -1.18

In plain terms, TAGAGTCTAATGCTGACTGGGC has a documented sensor-assay potency score (higher = more potent) of -0.0965

In plain terms, TTCCATAAAATCCACAGCCAGT has a documented sensor-assay potency score (higher = more potent) of -1.07

In plain terms, TACTACTATTCTGTCTTTGAAG has a documented sensor-assay potency score (higher = more potent) of -0.924

In plain terms, AAGATGTAGAGTCTAATGCTGA has a documented sensor-assay potency score (higher = more potent) of -0.785

In plain terms, TTTCTCAGCAGCATCGGCTTTG has a documented sensor-assay potency score (higher = more potent) of -0.787

In plain terms, TTCCTGCACATGAAACAGCGAT has a documented sensor-assay potency score (higher = more potent) of -1.19

In plain terms, TTGTGTACATCTGAGTAACGGT has a documented sensor-assay potency score (higher = more potent) of -0.562

---

# subject.of.test: SEMA5A
# assay.remarks: pooled miR-30 sensor sort-seq; sequence = guide strand
# condition.parameters: shRNA
Provide the reported sensor-assay potency score (higher = more potent) of each item.
Lab note: jot the number down without any unit.

In plain terms, TTGCAGTATCTTTCCTCGCGGT has a documented sensor-assay potency score (higher = more potent) of -0.492

In plain terms, TTATGAAATATTATGGACCTAT has a documented sensor-assay potency score (higher = more potent) of -0.515

In plain terms, TAGAACAGTACCGCATTTCGAT has a documented sensor-assay potency score (higher = more potent) of -0.368

In plain terms, ATATCGTTCTTGCACACCCGGG has a documented sensor-assay potency score (higher = more potent) of -1.15

In plain terms, TTAGAGTCAAACACACACGGCC has a documented sensor-assay potency score (higher = more potent) of -0.151

In plain terms, ATCTCTTCCAGCAAACAGCTGC has a documented sensor-assay potency score (higher = more potent) of -0.82

In plain terms, TTGAAGACGCACACAGCTGAGG has a documented sensor-assay potency score (higher = more potent) of -0.713
